- TEST TARGET: T1, human MSLN-R3-3 polypeptide (human)
- T1 construct: Part of region R3 of human MSLN; also called hMSLN-R3-3; human MSLN-R3-3 protein
- MEASUREMENT NOTES: ELISA, coated antigen, no antibody (blank)
ATTRIBUTE MEASURED: OD450
One number for each entry.

These solved cases illustrate the format of a correct answer.
BINDER	OD450
S009-F6-76.1 chimeric antibody (antibody, human IgG1, kappa, V domains shown, Human-murine chimeric antibody, human IgG1/kappa constant regions) VH: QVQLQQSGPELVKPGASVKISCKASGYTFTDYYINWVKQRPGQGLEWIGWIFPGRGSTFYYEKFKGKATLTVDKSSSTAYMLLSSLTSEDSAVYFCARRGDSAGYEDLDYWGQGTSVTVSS VL: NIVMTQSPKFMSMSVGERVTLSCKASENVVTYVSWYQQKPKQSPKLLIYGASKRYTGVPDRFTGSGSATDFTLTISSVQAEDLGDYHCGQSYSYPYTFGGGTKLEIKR	0.04
S009-F6-62.5 chimeric antibody (antibody, human IgG1, kappa, V domains shown, Human-murine chimeric antibody, human IgG1/kappa constant regions) VH: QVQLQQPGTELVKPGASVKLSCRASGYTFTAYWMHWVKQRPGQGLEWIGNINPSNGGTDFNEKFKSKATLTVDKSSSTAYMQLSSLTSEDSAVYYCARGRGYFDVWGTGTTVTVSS VL: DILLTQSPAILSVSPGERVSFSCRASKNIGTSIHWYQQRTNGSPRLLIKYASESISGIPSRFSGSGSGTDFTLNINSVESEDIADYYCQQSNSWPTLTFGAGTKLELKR	0.05
S009-F5-9.16 chimeric antibody (antibody, human IgG1, kappa, V domains shown, Human-murine chimeric antibody, human IgG1/kappa constant regions) VH: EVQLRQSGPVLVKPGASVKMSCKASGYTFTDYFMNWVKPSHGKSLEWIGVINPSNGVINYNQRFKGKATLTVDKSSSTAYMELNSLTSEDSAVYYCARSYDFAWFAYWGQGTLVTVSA VL: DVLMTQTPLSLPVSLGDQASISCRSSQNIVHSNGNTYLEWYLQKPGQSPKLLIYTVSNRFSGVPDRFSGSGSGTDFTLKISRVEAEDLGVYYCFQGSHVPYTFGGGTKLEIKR	0.05

Request the reported OD450 associated with S009-F4-94.15 chimeric antibody (antibody, human IgG1, kappa, V domains shown, Human-murine chimeric antibody: murine VH/VL on human IgG1 heavy and kappa light constant regions) VH: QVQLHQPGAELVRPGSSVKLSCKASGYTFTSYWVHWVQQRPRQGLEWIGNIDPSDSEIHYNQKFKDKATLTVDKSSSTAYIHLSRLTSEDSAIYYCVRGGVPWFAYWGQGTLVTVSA VL: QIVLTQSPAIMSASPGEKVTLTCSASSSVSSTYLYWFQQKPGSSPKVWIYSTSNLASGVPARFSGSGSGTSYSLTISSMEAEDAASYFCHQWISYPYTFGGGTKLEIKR
0.07
